Data provenance: patent US20240117334A1

- measured_on: Human Factor B (human) (UniProt P00751)
- Sequence (P00751 26-764 limits assumed): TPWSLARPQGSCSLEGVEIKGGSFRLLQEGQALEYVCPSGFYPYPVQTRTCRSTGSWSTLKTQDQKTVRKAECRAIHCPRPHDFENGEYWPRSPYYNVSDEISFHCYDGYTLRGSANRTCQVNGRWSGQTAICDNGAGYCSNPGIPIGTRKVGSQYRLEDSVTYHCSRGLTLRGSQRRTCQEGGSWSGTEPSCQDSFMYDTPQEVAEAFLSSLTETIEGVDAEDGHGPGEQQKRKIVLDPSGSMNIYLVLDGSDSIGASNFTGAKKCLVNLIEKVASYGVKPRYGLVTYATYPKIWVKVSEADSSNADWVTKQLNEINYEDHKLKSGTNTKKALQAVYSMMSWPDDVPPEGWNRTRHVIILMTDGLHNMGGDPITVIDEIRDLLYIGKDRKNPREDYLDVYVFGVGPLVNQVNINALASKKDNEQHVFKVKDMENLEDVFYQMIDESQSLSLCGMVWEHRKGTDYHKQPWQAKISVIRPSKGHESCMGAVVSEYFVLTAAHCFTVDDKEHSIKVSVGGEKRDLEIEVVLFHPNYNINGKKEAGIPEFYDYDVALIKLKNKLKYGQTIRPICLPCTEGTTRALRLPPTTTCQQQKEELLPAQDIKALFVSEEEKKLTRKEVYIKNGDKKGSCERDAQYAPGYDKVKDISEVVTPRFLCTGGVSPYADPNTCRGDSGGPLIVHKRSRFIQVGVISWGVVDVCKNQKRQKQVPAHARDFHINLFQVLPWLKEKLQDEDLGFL
- experiment: cell-based or functional assay
assay_metric: fB Cleavage EC50 (nM)
Please respond with the number in nM and leave the unit unwritten.

Recorded results for 2 binders are shown here.
| binder | measure_unit | fB Cleavage EC50 |
| --- | --- | --- |
| chymase C22S/P38Q/K40M/F41K/L99W/V138I/F173M/A190S/V213A/S218N/A226R (enzyme) IIGGTESKPHSRPYMAYLEIVTSNGQSMKCGGFLIRRNFVLTAAHCAGRSITVTLGAHNITEEEDTWQKLEVIKQFRHPKYNTSTWHHDIMLLKLKEKASLTLAVGTLPFPSQFNFVPPGRMCRIAGWGRTGVLKPGSDTLQEVKLRLMDPQACSHMRDFDHNLQLCVGNPRKTKSSFKGDSGGPLLCAGVAQGIASYGRNDAKPPRVFTRISHYRPWINQILQAN | nM | 956 |
| chymase C22S/P38Q/K40M/F41R/V138I/F173L/D175N/A190S/V213A/S218L/A226R (enzyme) IIGGTESKPHSRPYMAYLEIVTSNGQSMRCGGFLIRRNFVLTAAHCAGRSITVTLGAHNITEEEDTWQKLEVIKQFRHPKYNTSTLHHDIMLLKLKEKASLTLAVGTLPFPSQFNFVPPGRMCRIAGWGRTGVLKPGSDTLQEVKLRLMDPQACSHLRNFDHNLQLCVGNPRKTKSSFKGDSGGPLLCAGVAQGIASYGRLDAKPPRVFTRISHYRPWINQILQAN | nM | 482 |

What does the record list as fB Cleavage EC50 for chymase C22S/L99W/F173K/K192R/R217S/S218V/A226R (enzyme) IIGGTESKPHSRPYMAYLEIVTSNGPSKFCGGFLIRRNFVLTAAHCAGRSITVTLGAHNITEEEDTWQKLEVIKQFRHPKYNTSTWHHDIMLLKLKEKASLTLAVGTLPFPSQFNFVPPGRMCRVAGWGRTGVLKPGSDTLQEVKLRLMDPQACSHKRDFDHNLQLCVGNPRKTKSAFRGDSGGPLLCAGVAQGIVSYGSVDAKPPRVFTRISHYRPWINQILQAN ?
2490

Which value of fB Cleavage EC50 has been reported for chymase C22S/S189T/A226R/F228M (enzyme) IIGGTESKPHSRPYMAYLEIVTSNGPSKFCGGFLIRRNFVLTAAHCAGRSITVTLGAHNITEEEDTWQKLEVIKQFRHPKYNTSTLHHDIMLLKLKEKASLTLAVGTLPFPSQFNFVPPGRMCRVAGWGRTGVLKPGSDTLQEVKLRLMDPQACSHFRDFDHNLQLCVGNPRKTKTAFKGDSGGPLLCAGVAQGIVSYGRSDAKPPRVMTRISHYRPWINQILQAN in the records?
1550

I would be grateful if you could share the reported fB Cleavage EC50 for chymase C22S/P38Q/K40L/F41R/L99Q/V138I/F173Y/D175N/A190S/V213A/S218V/A226R (enzyme) IIGGTESKPHSRPYMAYLEIVTSNGQSLRCGGFLIRRNFVLTAAHCAGRSITVTLGAHNITEEEDTWQKLEVIKQFRHPKYNTSTQHHDIMLLKLKEKASLTLAVGTLPFPSQFNFVPPGRMCRIAGWGRTGVLKPGSDTLQEVKLRLMDPQACSHYRNFDHNLQLCVGNPRKTKSSFKGDSGGPLLCAGVAQGIASYGRVDAKPPRVFTRISHYRPWINQILQAN .
102
